Would you kindly list activation for each of these compounds?
# system-name: D(2) dopamine receptor (Homo sapiens) (UniProt P14416)
# Sequence (P14416 whole entry, looked up): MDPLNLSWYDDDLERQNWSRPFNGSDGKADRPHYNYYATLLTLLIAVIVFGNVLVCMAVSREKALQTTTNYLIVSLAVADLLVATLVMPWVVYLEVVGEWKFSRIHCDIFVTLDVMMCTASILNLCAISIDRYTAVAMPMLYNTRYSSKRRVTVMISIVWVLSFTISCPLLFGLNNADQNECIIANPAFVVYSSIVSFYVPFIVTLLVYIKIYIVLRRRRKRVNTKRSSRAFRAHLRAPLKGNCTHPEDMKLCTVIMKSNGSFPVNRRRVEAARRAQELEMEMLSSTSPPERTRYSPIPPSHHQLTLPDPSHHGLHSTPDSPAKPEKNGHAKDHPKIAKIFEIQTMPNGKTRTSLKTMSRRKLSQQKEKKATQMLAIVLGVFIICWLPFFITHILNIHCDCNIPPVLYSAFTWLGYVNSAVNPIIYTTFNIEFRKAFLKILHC
# assay-remarks: Beta-Arrestin HTS for Positive Allosteric Modulators of the Human D2 Dopamine Receptor: Agonists
# details: DiscoveRx PathHunter D2 beta-arrestin, luminescence, 90 min; hits give high values; 100% = 57 uM dopamine signal
In all, about 360,000 compounds went through this assay and about 300 (0.083%) were called active. Only a selection was taken, and actives are over-represented in it overall.
I only need the number, in %, no unit after it.

Task: For the compound "O=S(=O)(NCCS(=O)(=O)N1CCN(c2ccccc2)CC1)c1ccc(F)cc1" , what activation is on record?
Output: -3.38

Task: Look at this compound and give its reported activation. "CC(=O)NN=C(C)c1ccc(NC(=O)C2CC2)cc1"
Output: -2.2

Task: What does the record list as activation for "Cn1nc(C(=O)OCC(=O)N(Cc2ccccc2)C(C)(C)C)c2ccccc2c1=O" ?
Output: -5.43

Task: Which value of activation has been reported for "c1cnc(N2CCN(c3ccc4ccccc4n3)CC2)nc1" in the records?
Output: -9.01

Task: Given the compound "Cc1cc(C)n2nc(C(=O)N3CCN(Cc4ccc5c(c4)OCO5)CC3)nc2n1" , what is its reported activation?
Output: 10.2

Task: # get_value(readout='activation', item= COc1ccc(C(=O)NCC2CCCO2)cc1S(=O)(=O)NCc1ccc(Cl)cc1 (stereo not drawn) )
Output: 0.708

Task: Param item = CN(C(=O)c1cccc(NC(=O)Cc2ccc(NC(=O)C3CCCN(C(=O)C4CCCC4)C3)cc2)c1)C1CCC1 (stereo not drawn) ; retrieve measured activation.
Output: 1.94

Task: Fill blank: measured activation of the compound "Nc1ncnc2c1ncn2[C@@H]1O[C@H](C(=O)N2CCCN(Cc3ccccc3F)CC2)[C@@H](O)[C@H]1O" is ____.
Output: -3.13

Task: Entry COc1ccc(C2=Nc3ccccc3NC(=O)C2N(C(=O)c2cc3ccccc3[nH]2)c2ccccc2)cc1 (stereo not drawn) : reported activation = ?
Output: 2.65

Task: Requested read-out: activation. Entry: "Cc1ccc(CN2CCN(/N=C/c3ccco3)CC2)c(C)c1"
Output: -3.14

Task: Field request: activation | item: "O=C1CSC(=O)N1CCOCCN1C(=O)CSC1=O"
Output: -0.569

Task: Would you mind telling me what activation value was observed for "CCCCN1C(=O)C(=O)N(CC(=O)Nc2cccc(C(C)=O)c2)C1=O" ?
Output: -3.6

Task: Look up activation: "CNC[C@@H]1Oc2c(NS(C)(=O)=O)cccc2C(=O)N([C@@H](C)CO)C[C@H]1C"
Output: -2.2

Task: # query: activation of entry "CCOC(=O)C(CCOc1cccc(CC)c1)C(=O)OCC"
Output: -1.01

Task: Could you share which activation value was measured for O=C1CCC(C(=O)Nc2ccc(OC(F)F)cc2)N1 (stereo not drawn) ?
Output: -0.767

Task: # input compound: "OCCN1CCN(CCO)C1=S" ; wanted: its activation
Output: -3.52

Task: Which activation value is on record for "O=C(CSc1ccccn1)Nc1nc2c(ccc3ccccc32)s1" ?
Output: -0.569

Task: Value lookup for activation; key = "O=C(c1cccs1)N1CCN(Cc2ccc3c(c2)OCO3)CC1"
Output: 46.9

Task: Item "Cc1ccc(-c2csc(C(C#N)=C(O)CN3CCN(C(=O)c4ccco4)CC3)n2)cc1" has what recorded activation?
Output: 9.93

Task: Consider the compound "CO/N=C/c1cn(-c2ccc(Cl)cc2)nn1" and give its measured activation.
Output: -5.2

Task: Could you share which activation value was measured for "O=c1ccn([C@@H]2O[C@H](CNS(=O)(=O)c3cc4ccccc4s3)[C@@H](O)[C@H]2O)c(=O)[nH]1" ?
Output: -2.86

Task: Report activation for "Cc1nc(-c2ccc(F)cc2)c(CC(=O)N(C)CC(=O)Nc2c(C)cccc2C)s1" please.
Output: 0.938

Task: Could you tell me which activation is on file for "CC(=O)c1nn(-c2ccccc2)c(=Nc2ccccc2)cc1C" ?
Output: -5.64

Task: What activation value was documented for this compound, "COc1ccc(CCn2c(NCCCN3CCOCC3)nc3c2c(=O)[nH]c(=O)n3C)cc1" ?
Output: 0.498

Task: Need activation, item "O=S(=O)(Cc1nnnn1-c1ccccc1)c1ccccc1"
Output: 0.629

Task: What measured activation goes with "O=C(CSc1nnc2n1CCCN2)c1ccccc1" ?
Output: 1.27

Task: Bench note: what activation did CC(=O)NC(c1ccccc1)c1nc(-c2ccccc2C)cs1 (stereo not drawn) show?
Output: 73.4

Task: Report activation for O=C(NC1CC2CCCC(C1)N2C(=O)N1CCCCC1)C1CCCCC1 (stereo not drawn) please.
Output: -2.68

Task: Using the record for "Cn1nc(C(F)(F)F)c(C(=O)Nc2cccc(C(F)(F)F)c2)c1SCc1ccc(Cl)cc1" , report its activation.
Output: 2.52

Task: Item "O=C1N(c2ccccc2)C(=Nc2ccccc2)SC12CC2" has what recorded activation?
Output: -5.55

Task: # input compound: "CCNC(=O)Nc1ccc(S(=O)(=O)Nc2cnc(C)nc2C)cc1" ; wanted: its activation
Output: -5.47

Task: Reported activation for "O=C(CN(C(=O)CNC(=O)c1cccs1)c1cccc(F)c1)NC1CCCCC1" : what is it?
Output: -1.63

Task: What value of measured activation is listed for "CCS(=O)(=O)N1CCC(N2CCN(c3ccccc3)CC2)CC1" ?
Output: 45.9

Task: Query: activation; subject: "CCCN(CCC)c1c([N+](=O)[O-])c(=O)oc2ccccc12"
Output: -4.9

Task: Using the record for "CCOc1ccc(CC(=O)NCCS(=O)(=O)N2CCN(c3ccccc3)CC2)cc1" , report its activation.
Output: 0.195

Task: Would you kindly share the measured activation for "CCOC1=C2CN(S(=O)(=O)c3ccc(C)cc3)[C@H](c3cccs3)C[C@H]2[C@H]2C(=O)N(c3ccccc3)C(=O)[C@H]2C1" ?
Output: -3.55

Task: Report activation for CC(C)Oc1ccc(CN2CCC2(C)C(=O)NCc2ccc(C(F)(F)F)cc2)cc1 (stereo not drawn) please.
Output: -5.75

Task: I am curious: what activation value has been reported for "COc1ccc(N(CC(=O)Nc2cc(OC)cc(OC)c2)S(=O)(=O)c2c(C)n[nH]c2C)cc1" ?
Output: -3.11

Task: So what's the measured activation for this one? "CC(=O)Nc1ccc(CNc2nc(NCCN(C)C)nc3cc(-c4ccccc4)sc23)cc1"
Output: -1.9

Task: Look up activation: "O=C(NNS(=O)(=O)c1ccc(F)cc1)C1CCCCC1"
Output: -2.79

Task: Please give the measured activation for this compound: "COc1ccc([N+](=O)[O-])cc1NC(=O)c1ccc(N(Cc2ccccc2C)S(C)(=O)=O)cc1"
Output: 1.42

Task: Which activation reading was recorded for the compound "Cc1ccc(CN2CCN(/N=C/c3cccnc3)CC2)c(C)c1" ?
Output: -1.75

Task: Which activation reading was recorded for the compound CC(=O)NC(c1ccccc1)c1nc(-c2cccc(C(C)C)c2)cs1 (stereo not drawn) ?
Output: 1.91
